- Test system: 521955-158-R2-J5-PDC complex spheroid viability;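 also: spheroids exposed to agents for one week before reading; 100% = DMSO vehicle control viability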
- measurement_description: Anticancer human tumor 521955-158-R2-J5-PDC patient-derived pancreatic carcinoma cell line growth inhibition [GQUAD]
- measurement_setup: second compound 0.1 µM; first compound 1 µM; stronger effect = lower value
viability, T/C reference
parameter_measured: viability, T/C

INSERT INTO measurements (compound, recorded_result) VALUES
  ('CC1COCCN1c1cc(-c2ccnn2C)c2ccnc(-c3ccn[nH]3)c2n1 (stereo unspecified) + CN(C)c1ccc(Nc2c3ccc(NC(=O)CCN4CCCC4)cc3nc3cc(NC(=O)CCN4CCCC4)ccc23)cc1', '20.9%'),
  ('O=C(c1cc(Cc2n[nH]c(=O)c3ccccc23)ccc1F)N1CCN(C(=O)C2CC2)CC1 + CN(C)c1ccc(Nc2c3ccc(NC(=O)CCN4CCCC4)cc3nc3cc(NC(=O)CCN4CCCC4)ccc23)cc1', '86.6%'),
  ('CC(=O)O[C@H]1C(=O)[C@@]2(C)[C@H]([C@H](OC(=O)c3ccccc3)[C@]3(O)C[C@H](OC(=O)[C@H](O)[C@@H](NC(=O)c4ccccc4)c4ccccc4)C(C)=C1C3(C)C)[C@]1(OC(C)=O)CO[C@@H]1C[C@@H]2O + Cc1cnc(CNC(=O)c2c(=O)c3ccc(N4CCCN(C)CC4)nc3n3c2sc2ccccc23)cn1', '10.4%'),
  ('O=C(c1cc(Cc2n[nH]c(=O)c3ccccc23)ccc1F)N1CCN(C(=O)C2CC2)CC1 + Cc1cnc(CNC(=O)c2c(=O)c3ccc(N4CCCN(C)CC4)nc3n3c2sc2ccccc23)cn1', '52.9%'),
  ('COc1ncnc(C2CC2)c1-c1ncc2cnn(Cc3ccc(-c4nc(C(F)(F)F)cn4C(C)C)cc3)c2n1 + Cc1[nH]c2ccc(F)cc2c1-c1nc2c3cccnc3c3ncccc3c2[nH]1', '126%'),
  ('CC(C)n1c(=O)n(C)c2cnc3cc(F)c(-c4ccc(OCCCN5CCCCC5)nc4)cc3c21 + Cc1[nH]c2ccc(F)cc2c1-c1nc2c3cccnc3c3ncccc3c2[nH]1', '105%'),
  ('Cc1cccc(N(C)C(=O)C2C(O)CCN2c2nc(C)cc(C(F)(F)F)c2C#N)c1 (stereo unspecified) + Cc1[nH]c2ccc(F)cc2c1-c1nc2c3cccnc3c3ncccc3c2[nH]1', '106%'),
  ('C=CCn1c(=O)c2cnc(Nc3ccc(N4CCN(C)CC4)cc3)nc2n1-c1cccc(C(C)(C)O)n1 + Cc1[nH]c2ccc(F)cc2c1-c1nc2c3cccnc3c3ncccc3c2[nH]1', '15.8%'),
  ('CCCS(=O)(=O)Nc1ccc(F)c(C(=O)c2c[nH]c3ncc(-c4ccc(Cl)cc4)cc23)c1F + CN(C)c1ccc(Nc2c3ccc(NC(=O)CCN4CCCC4)cc3nc3cc(NC(=O)CCN4CCCC4)ccc23)cc1', '109%'),
  ('Cc1cccc(N(C)C(=O)C2C(O)CCN2c2nc(C)cc(C(F)(F)F)c2C#N)c1 (stereo unspecified) + Cc1cnc(CNC(=O)c2c(=O)c3ccc(N4CCCN(C)CC4)nc3n3c2sc2ccccc23)cn1', '62.2%'),
  ('CC1COCCN1c1cc(C2(O)CC3CCC(C2)O3)c2cnn(-c3ccn[nH]3)c2n1 (stereo unspecified) + Cc1cnc(CNC(=O)c2c(=O)c3ccc(N4CCCN(C)CC4)nc3n3c2sc2ccccc23)cn1', '13.4%'),
  ('CC(C)(O)C1CCC(Nc2ccc3ncc(-c4cccc(C(F)(F)F)c4)n3n2)CC1 (stereo unspecified) + CN(C)c1ccc(Nc2c3ccc(NC(=O)CCN4CCCC4)cc3nc3cc(NC(=O)CCN4CCCC4)ccc23)cc1', '117%'),
  ('COc1ncnc(C2CC2)c1-c1ncc2cnn(Cc3ccc(-c4nc(C(F)(F)F)cn4C(C)C)cc3)c2n1 + CN(C)c1ccc(Nc2c3ccc(NC(=O)CCN4CCCC4)cc3nc3cc(NC(=O)CCN4CCCC4)ccc23)cc1', '112%'),
  ('O=c1[nH]cc(F)c(=O)[nH]1 + Cc1[nH]c2ccc(F)cc2c1-c1nc2c3cccnc3c3ncccc3c2[nH]1', '89.6%'),
  ('COc1ncnc(C2CC2)c1-c1ncc2cnn(Cc3ccc(-c4nc(C(F)(F)F)cn4C(C)C)cc3)c2n1 + Cc1cnc(CNC(=O)c2c(=O)c3ccc(N4CCCN(C)CC4)nc3n3c2sc2ccccc23)cn1', '55.9%'),
  ('CC(=O)O[C@H]1C(=O)[C@@]2(C)[C@H]([C@H](OC(=O)c3ccccc3)[C@]3(O)C[C@H](OC(=O)[C@H](O)[C@@H](NC(=O)c4ccccc4)c4ccccc4)C(C)=C1C3(C)C)[C@]1(OC(C)=O)CO[C@@H]1C[C@@H]2O + CN(C)c1ccc(Nc2c3ccc(NC(=O)CCN4CCCC4)cc3nc3cc(NC(=O)CCN4CCCC4)ccc23)cc1', '23%'),
  ('CC(C)(O)C1CCC(Nc2ccc3ncc(-c4cccc(C(F)(F)F)c4)n3n2)CC1 (stereo unspecified) + Cc1cnc(CNC(=O)c2c(=O)c3ccc(N4CCCN(C)CC4)nc3n3c2sc2ccccc23)cn1', '58.6%'),
  ('C#Cc1c(F)ccc2cc(O)cc(-c3ncc4c(N5CC6CCC(C5)N6)nc(OCC56CCCN5CC(F)C6)nc4c3F)c12 (stereo unspecified) + Cc1[nH]c2ccc(F)cc2c1-c1nc2c3cccnc3c3ncccc3c2[nH]1', '45.1%'),
  ('CC(=O)O[C@H]1C(=O)[C@@]2(C)[C@H]([C@H](OC(=O)c3ccccc3)[C@]3(O)C[C@H](OC(=O)[C@H](O)[C@@H](NC(=O)c4ccccc4)c4ccccc4)C(C)=C1C3(C)C)[C@]1(OC(C)=O)CO[C@@H]1C[C@@H]2O + Cc1[nH]c2ccc(F)cc2c1-c1nc2c3cccnc3c3ncccc3c2[nH]1', '31.2%'),
  ('CCCS(=O)(=O)Nc1ccc(F)c(C(=O)c2c[nH]c3ncc(-c4ccc(Cl)cc4)cc23)c1F + Cc1cnc(CNC(=O)c2c(=O)c3ccc(N4CCCN(C)CC4)nc3n3c2sc2ccccc23)cn1', '64%'),
  ('COc1ccc([C@@H](O)c2cc(-c3ncnc4cc(N5CCOCC5)ccc34)c(F)cc2Cl)nn1 + CN(C)c1ccc(Nc2c3ccc(NC(=O)CCN4CCCC4)cc3nc3cc(NC(=O)CCN4CCCC4)ccc23)cc1', '83.9%');
